In this section, each of the compounds is paired with its reported pIC50.
tested on: L. donovani promastigote forms; assay: In vitro activity against promastigote forms; format: cell-based; conditions: Leishmania donovani, 48 h, 27 °C, means of three separated experiments, read-out: Compound IC50 Promastigote Forms
pIC50: −log10 of the molar value.

- item.smiles: "c1cc2nc(c1)CNCCCNCCCNCCNCCCNCCCNC2"
  target.of.assay: "L. donovani promastigote forms"
  pIC50: 3.23
- item.smiles: "c1cc2ccc1CNCCNCCCNCCNC2"
  target.of.assay: "L. donovani promastigote forms"
  pIC50: 3.13
- item.smiles: "c1cc2nc(c1)CNCCCNCCNCCNCCCNC2"
  target.of.assay: "L. donovani promastigote forms"
  pIC50: 4.28
- item.smiles: "c1cc2cc(c1)CNCCCNCCNCCNCCCNC2"
  target.of.assay: "L. donovani promastigote forms"
  pIC50: 3.90
- item.smiles: "c1cc2nc(c1)CNCCCNCCCNCCCNC2"
  target.of.assay: "L. donovani promastigote forms"
  pIC50: 6.70
- item.smiles: "c1c2n[nH]c1CNCCNCCCNCCNC2"
  target.of.assay: "L. donovani promastigote forms"
  pIC50: 4.60
- item.smiles: "c1cc2nc(c1)CNCCCNCCNCCNCCNCCCNC2"
  target.of.assay: "L. donovani promastigote forms"
  pIC50: 3.00
- item.smiles: "c1cc2cc(c1)CNCCCNCCNCCCNC2"
  target.of.assay: "L. donovani promastigote forms"
  pIC50: 3.80
- item.smiles: "c1cc2cc(c1)CNCCCNCCCNCCCNC2"
  target.of.assay: "L. donovani promastigote forms"
  pIC50: 3.98
- item.smiles: "c1cc2nc(c1)CNCCCNCCCNCCCNCCCNCCCNC2"
  target.of.assay: "L. donovani promastigote forms"
  pIC50: 4.15
- item.smiles: "c1cc2nc(c1)CNCCCNCCCCNC2"
  target.of.assay: "L. donovani promastigote forms"
  pIC50: 4.55
- item.smiles: "c1cc2nc(c1)CNCCCNCCNCCCNCCNCCCNC2"
  target.of.assay: "L. donovani promastigote forms"
  pIC50: 3.89
- item.smiles: "c1c2n[nH]c1CNCCCNCCCNCCCNC2"
  target.of.assay: "L. donovani promastigote forms"
  pIC50: 5.85
- item.smiles: "c1cc2cc(c1)CNCCNCCCNCCNC2"
  target.of.assay: "L. donovani promastigote forms"
  pIC50: 3.77

Hey, just so you know, these numbers are from paper PMC10059905.
